Tested on: HOP-62 NSCLC
Assay: NCI tumour cell line growth inhibition, 48 h
measurementType: TGI

Below, each entry is followed by its recorded TGI result.
{"columns": ["compound", "TGI"],
 "data": [
  ["CC(=O)c1cccc(C)c1C(=O)O", "> 100 µM"],
  ["C=C(C#N)C1OCC2OC(C)(C)OC21 (stereo not drawn)", "> 100 µM"],
  ["CC1=C(C(=O)Nc2ccc(Cl)c(Cl)c2)C(c2cccc(Cl)c2)NC(=O)N1 (stereo not drawn)", "20.5 µM"]
]}

Prompt: Tell me the measured TGI of CC(=O)O/C=C1/C[C@H]2[C@@H]3CCC4CC(C(C)=O)CC[C@]4(C)[C@H]3CC[C@]2(C)C1=O (stereo partly drawn) , please.
Completion: > 100 µM

Prompt: Tell me the measured TGI of O=C(N/N=C/c1c(-c2ccccc2)no[n+]1[O-])N1CCOCC1 , please.
Completion: > 100 µM

Prompt: Tell me the measured TGI of O=C1O/C(=C\c2ccccc2)N(c2ccccc2)C1=O , please.
Completion: > 100 µM

Prompt: Tell me the measured TGI of COC(=O)C1=CSC2(S1)C(C(=O)OC)=CSc1c2ssc1=O (stereo not drawn) , please.
Completion: 17 µM

Prompt: Tell me the measured TGI of COc1ccccc1C(O)(c1ccccc1)C(O)(c1ccccc1)c1ccccc1OC (stereo not drawn) , please.
Completion: > 100 µM

Prompt: Tell me the measured TGI of COc1ccc2cc3[nH]c(=O)cc(O)c3cc2c1OC , please.
Completion: > 100 µM

Prompt: Tell me the measured TGI of O=C1NC(=O)C(c2ccccc2Cl)=C1Nc1cc(Cl)c(O)c(Cl)c1 , please.
Completion: > 25 µM

Prompt: Tell me the measured TGI of CCN(CC)CCC(=O)c1ccc(C)cc1 , please.
Completion: > 100 µM

Reference source: PubChem BioAssay (NCI)
